- PROCEDURE_TEXT: Activity of Beta-lactamase GES-2 E104, N170 mutant
Provide the reported kcat of each item.
Hi! Could you send only the number? It should be in s⁻¹, unit omitted.

QUERY: So what does the record say about kcat for CC1(C)S[C@@H]2[C@H](NC(=O)Cc3ccccc3)C(=O)N2[C@H]1C(=O)O ?
RESULT: 5.75

QUERY: So what does the record say about kcat for CO/N=C(\C(=O)N[C@@H]1C(=O)N2C(C(=O)O)=C(COC(C)=O)CS[C@H]12)c1csc(N)n1 ?
RESULT: 37.2

QUERY: So what does the record say about kcat for CC(C)(O/N=C(\C(=O)N[C@@H]1C(=O)N2C(C(=O)[O-])=C(C[n+]3ccccc3)CS[C@H]12)c1csc(N)n1)C(=O)O ?
RESULT: 0.21

QUERY: So what does the record say about kcat for C[C@@H](O)[C@H]1C(=O)N2C(C(=O)O)=C(SCCNC=N)C[C@H]12 [IMIPENEM ANHYDROUS] ?
RESULT: 0.016

* * *

Provide the reported kcat/Km of each item.
- PROCEDURE_TEXT: Ratio of Kcat to Km for Beta-lactamase GES-7 K104, G170 mutant
Hi! Could you send only the number? It should be in M⁻¹ s⁻¹, unit omitted.

QUERY: So what does the record say about kcat/Km for CO/N=C(\C(=O)N[C@@H]1C(=O)N2C(C(=O)O)=C(COC(C)=O)CS[C@H]12)c1csc(N)n1 [CEFOTAXIME] ?
RESULT: 380000

QUERY: So what does the record say about kcat/Km for CC(C)(O/N=C(\C(=O)N[C@@H]1C(=O)N2C(C(=O)[O-])=C(C[n+]3ccccc3)CS[C@H]12)c1csc(N)n1)C(=O)O [CEFTAZIDIME] ?
RESULT: 1.9e+06

QUERY: So what does the record say about kcat/Km for C[C@H]1[C@H](NC(=O)/C(=N\OC(C)(C)C(=O)O)c2csc(N)n2)C(=O)N1S(=O)(=O)O [AZTREONAM] ?
RESULT: 190000

QUERY: So what does the record say about kcat/Km for CC1(C)S[C@@H]2[C@H](NC(=O)Cc3ccccc3)C(=O)N2[C@H]1C(=O)O ?
RESULT: 360000

* * *

Provide the reported kcat/Km of each item.
- PROCEDURE_TEXT: Ratio of Kcat to Km for Beta-lactamase GES-1 E104, G170 mutant
Hi! Could you send only the number? It should be in M⁻¹ s⁻¹, unit omitted.

QUERY: So what does the record say about kcat/Km for CC(C)(O/N=C(\C(=O)N[C@@H]1C(=O)N2C(C(=O)[O-])=C(C[n+]3ccccc3)CS[C@H]12)c1csc(N)n1)C(=O)O ?
RESULT: 77000

QUERY: So what does the record say about kcat/Km for CC1(C)S[C@@H]2[C@H](NC(=O)Cc3ccccc3)C(=O)N2[C@H]1C(=O)O ?
RESULT: 260000

QUERY: So what does the record say about kcat/Km for C[C@@H](O)[C@H]1C(=O)N2C(C(=O)O)=C(SCCNC=N)C[C@H]12 [IMIPENEM ANHYDROUS] ?
RESULT: 5000

QUERY: So what does the record say about kcat/Km for CO/N=C(\C(=O)N[C@@H]1C(=O)N2C(C(=O)O)=C(COC(C)=O)CS[C@H]12)c1csc(N)n1 ?
RESULT: 370000

* * *

- PROCEDURE_TEXT: Activity of Beta-lactamase GES-13 K104, N170 mutant
Label scheme for kcat: lower than 40 s⁻¹ is NOT MET, 40 s⁻¹ and above is MET.

QUERY: Threshold query (kcat >= 40 s⁻¹) on C[C@@H](O)[C@H]1C(=O)N2C(C(=O)O)=C(SCCNC=N)C[C@H]12 [IMIPENEM ANHYDROUS]
RESULT: NOT MET

QUERY: Threshold query (kcat >= 40 s⁻¹) on CO/N=C(\C(=O)N[C@@H]1C(=O)N2C(C(=O)O)=C(COC(C)=O)CS[C@H]12)c1csc(N)n1 [CEFOTAXIME]
RESULT: MET

QUERY: Threshold query (kcat >= 40 s⁻¹) on CC(C)(O/N=C(\C(=O)N[C@@H]1C(=O)N2C(C(=O)[O-])=C(C[n+]3ccccc3)CS[C@H]12)c1csc(N)n1)C(=O)O [CEFTAZIDIME]
RESULT: NOT MET

QUERY: Threshold query (kcat >= 40 s⁻¹) on CC1(C)S[C@@H]2[C@H](NC(=O)Cc3ccccc3)C(=O)N2[C@H]1C(=O)O
RESULT: NOT MET

QUERY: Threshold query (kcat >= 40 s⁻¹) on C[C@H]1[C@H](NC(=O)/C(=N\OC(C)(C)C(=O)O)c2csc(N)n2)C(=O)N1S(=O)(=O)O [AZTREONAM]
RESULT: NOT MET

* * *

- PROCEDURE_TEXT: Activity of Beta-lactamase GES-1 E104, G170 mutant
Provide the reported Km of each item.
Hi! Could you send only the number? It should be in µM, unit omitted.

QUERY: So what does the record say about Km for CC1(C)S[C@@H]2[C@H](NC(=O)Cc3ccccc3)C(=O)N2[C@H]1C(=O)O ?
RESULT: 120

QUERY: So what does the record say about Km for CC(C)(O/N=C(\C(=O)N[C@@H]1C(=O)N2C(C(=O)[O-])=C(C[n+]3ccccc3)CS[C@H]12)c1csc(N)n1)C(=O)O ?
RESULT: 137

QUERY: So what does the record say about Km for CO/N=C(\C(=O)N[C@@H]1C(=O)N2C(C(=O)O)=C(COC(C)=O)CS[C@H]12)c1csc(N)n1 ?
RESULT: 152

QUERY: So what does the record say about Km for C[C@@H](O)[C@H]1C(=O)N2C(C(=O)O)=C(SCCNC=N)C[C@H]12 [IMIPENEM ANHYDROUS] ?
RESULT: 1.2

* * *

- PROCEDURE_TEXT: Activity of Beta-lactamase GES-5 E104, S170 mutant
Provide the reported Km of each item.
Hi! Could you send only the number? It should be in µM, unit omitted.

QUERY: So what does the record say about Km for C[C@@H](O)[C@H]1C(=O)N2C(C(=O)O)=C(SCCNC=N)C[C@H]12 [IMIPENEM ANHYDROUS] ?
RESULT: 1.27

QUERY: So what does the record say about Km for CC1(C)S[C@@H]2[C@H](NC(=O)Cc3ccccc3)C(=O)N2[C@H]1C(=O)O ?
RESULT: 88.9

QUERY: So what does the record say about Km for CC(C)(O/N=C(\C(=O)N[C@@H]1C(=O)N2C(C(=O)[O-])=C(C[n+]3ccccc3)CS[C@H]12)c1csc(N)n1)C(=O)O ?
RESULT: 135

QUERY: So what does the record say about Km for CO/N=C(\C(=O)N[C@@H]1C(=O)N2C(C(=O)O)=C(COC(C)=O)CS[C@H]12)c1csc(N)n1 ?
RESULT: 133

QUERY: So what does the record say about Km for CO[C@@]1(NC(=O)Cc2cccs2)C(=O)N2C(C(=O)O)=C(COC(N)=O)CS[C@@H]21 ?
RESULT: 221
